B1: NEK9 peptide 738-753 (Serine/threonine-protein kinase Nek9), 16-mer library wild type / NSP9 (ORF1ab Nsp9, residues 4141-4253) (parent)
chain 1: SGLSIGTVFQSSSPGG
chain 2: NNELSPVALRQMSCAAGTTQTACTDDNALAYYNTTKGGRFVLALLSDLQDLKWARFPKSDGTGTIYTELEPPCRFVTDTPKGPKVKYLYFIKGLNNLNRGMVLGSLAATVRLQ

Variants of: B1
Condition parameters: with NSP9 (ORF1ab Nsp9, residues 4141-4253); bait immobilised on MaxiSorp plates (10 µg), library pre-cleared on GST, 2 h binding at 4 °C, five washes; one round per day, days 1-4; value from days 2 and 3; keep out of graded; scale: average fractional NGS count over selection days 2 and 3

{"columns": ["Variant identifier", "screen value"],
 "data": [
  ["chain 1 S1M", "1.76e-05"],
  ["chain 1 T7P", 0.000499],
  ["chain 1 S1N", 0.000364],
  ["chain 1 S4D", 0],
  ["chain 1 P14R", 0],
  ["chain 1 V8P", 0],
  ["chain 1 F9V", 0.000209],
  ["chain 1 T7E", 0.000776],
  ["chain 1 G15Q", "4.92e-05"],
  ["chain 1 I5E", 0],
  ["chain 1 Q10E", 0.000217],
  ["chain 1 S11A", 0],
  ["chain 1 S13V", 0],
  ["chain 1 F9N", "9.97e-05"],
  ["chain 1 G2V", 0],
  ["chain 1 G2L", 0],
  ["chain 1 S1Y", 0],
  ["chain 1 F9K", 0],
  ["chain 1 V8G", 0],
  ["chain 1 S1D", 0.000541],
  ["chain 1 S11T", 0],
  ["chain 1 P14E", "2.37e-05"]
]}
